Target: T1, human FolR1 ECD-AcTev-Fcknob-Avi tag + Fc hole, biotinylated monomeric Fc fusion (human, UniProt P0DOX5 223-449 = IgG part)
T1 construct: also called huFolR1; huFolR1-Fc
Assay: SPR ProteOn, Fab analyte;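 also: recombinant antigens immobilized, purified Fab two-fold dilutions injected in parallel channels, 200 s association and 600 s dissociation, buffer-only channel as in-line reference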
pKd: −log10 of the molar value.
Each record here notes measured pKd.
measure.name: pKd

[[record]]
binder = "18D3 Fab (Fab, V domains shown) VH: QVQLVQSGAEVKKPGASVKVSCKASGYTFTSYYMHWVRQAPGQGLEWMGIINPSGGSTSYAQKFQGRVTMTRDTSTSTVYMELSSLRSEDTAVYYCARNYYTGGSSAFDYWGQGTLVTVS VL: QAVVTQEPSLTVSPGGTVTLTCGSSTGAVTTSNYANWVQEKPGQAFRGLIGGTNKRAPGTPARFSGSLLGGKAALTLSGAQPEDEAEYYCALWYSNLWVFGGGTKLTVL"
measure_name = "pKd"
numeric_value = 7.03

[[record]]
binder = "15A1 Fab (Fab, V domains shown) VH: QVQLVQSGAEVKKPGASVKVSCKASGYTFTSYYMHWVRQAPGQGLEWMGIINPSGGSTSYAQKFQGRVTMTRDTSTSTVYMELSSLRSEDTAVYYCARNYYIGVVTFDYWGQGTLVTVSS VL: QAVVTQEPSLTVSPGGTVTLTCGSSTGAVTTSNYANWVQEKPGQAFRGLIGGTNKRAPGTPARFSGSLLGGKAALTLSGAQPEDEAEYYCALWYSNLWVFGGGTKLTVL"
measure_name = "pKd"
numeric_value = 7.51

[[record]]
binder = "16A3 Fab (Fab, V domains shown) VH: QVQLVQSGAEVKKPGASVKVSCKASGYTFTSYYMHWVRQAPGQGLEWMGIINPSGGSTSYAQKFQGRVTMTRDTSTSTVYMELSSLRSEDTAVYYCARNYYAGVTPFDYWGQGTLVTVSS VL: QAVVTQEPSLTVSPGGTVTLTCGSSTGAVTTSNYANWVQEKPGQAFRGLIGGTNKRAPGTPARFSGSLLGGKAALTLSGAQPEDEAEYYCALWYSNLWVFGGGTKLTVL"
measure_name = "pKd"
numeric_value = 7.66


These data points were gathered from patent US20210087291A1.
